target desc: G protein-activated inward rectifier potassium channel 2 (Homo sapiens) + G protein-activated inward rectifier potassium channel 1 (Homo sapiens) (UniProt P48051+P48549)
Sequence (P48051 whole entry, looked up): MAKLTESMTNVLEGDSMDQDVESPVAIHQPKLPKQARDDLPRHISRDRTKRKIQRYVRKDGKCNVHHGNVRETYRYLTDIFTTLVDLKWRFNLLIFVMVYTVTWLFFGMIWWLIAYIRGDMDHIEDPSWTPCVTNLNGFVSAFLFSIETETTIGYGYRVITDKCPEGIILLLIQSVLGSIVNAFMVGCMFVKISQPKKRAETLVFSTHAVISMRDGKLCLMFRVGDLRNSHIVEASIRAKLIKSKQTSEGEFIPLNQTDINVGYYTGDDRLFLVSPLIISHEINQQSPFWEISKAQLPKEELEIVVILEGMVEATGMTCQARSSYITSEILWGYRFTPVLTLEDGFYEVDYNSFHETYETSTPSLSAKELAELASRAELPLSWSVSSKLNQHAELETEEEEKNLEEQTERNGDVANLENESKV
Sequence (P48549 whole entry, looked up): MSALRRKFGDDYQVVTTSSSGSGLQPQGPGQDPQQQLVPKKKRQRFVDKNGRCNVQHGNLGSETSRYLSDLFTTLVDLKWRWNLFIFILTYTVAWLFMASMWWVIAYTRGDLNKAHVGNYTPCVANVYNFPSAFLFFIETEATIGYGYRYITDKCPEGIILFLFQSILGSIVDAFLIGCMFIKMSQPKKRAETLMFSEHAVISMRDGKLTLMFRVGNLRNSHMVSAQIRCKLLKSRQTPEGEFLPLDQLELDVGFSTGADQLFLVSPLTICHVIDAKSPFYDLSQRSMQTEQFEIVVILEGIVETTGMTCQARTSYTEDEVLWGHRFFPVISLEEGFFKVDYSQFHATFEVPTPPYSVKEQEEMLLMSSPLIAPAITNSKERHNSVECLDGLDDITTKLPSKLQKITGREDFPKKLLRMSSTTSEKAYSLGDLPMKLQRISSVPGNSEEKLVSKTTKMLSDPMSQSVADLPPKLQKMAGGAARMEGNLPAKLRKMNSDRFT
run description: GIRK1/2 thallium flux modulators, retest, confirmation, cell-based, HEK293 rmGlu8/hGIRK1/2, FluoZin-2 (AID 623911)
condition: HEK293 rmGlu8/hGIRK1/2, thallium flux FluoZin-2; actives lie on both sides; glutamate co-added at its EC20 level
Hit rate of the full screen: of about 2,100 compounds, about 770 (37%) were called active.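 The calls were made as follows: active = by-eye trace score of 1 for enhancers or -1 for inhibitors, so actives lie on both sides (some results past the limit were not filed as active); inactive = score 0, or 3 fluorescent, or 4 baseline rise.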 The list shows a part of the results.
Outcomes: active, inactive

[
  {
    "compound": "COc1cccc(NC(=O)C(Sc2nc3ccccc3c(=O)n2CC(C)C)c2ccccc2)c1 (stereo unspecified)",
    "discrete label": "inactive"
  },
  {
    "compound": "COc1cccc(NC(=O)Cn2cc3c(n2)CCCCC3)c1",
    "discrete label": "active"
  },
  {
    "compound": "COc1cccc(NC(=S)N/N=C2/CCCCc3ccccc32)c1",
    "discrete label": "inactive"
  },
  {
    "compound": "COc1cccc(NC(=O)CSc2nc(N)cc(N)n2)c1",
    "discrete label": "inactive"
  },
  {
    "compound": "COc1cccc(NC(=O)Cn2cc(C#N)c3ccccc32)c1",
    "discrete label": "active"
  },
  {
    "compound": "CC1CCc2nn(CC(=O)N3CCN(C(=O)c4ccco4)CC3)cc2C1 (stereo unspecified)",
    "discrete label": "inactive"
  },
  {
    "compound": "CCN(C(=O)CSc1nc2ccccc2n1CCc1ccccc1)C1CCS(=O)(=O)C1 (stereo unspecified)",
    "discrete label": "inactive"
  },
  {
    "compound": "O=C(CN1CCCCC1)Nc1cccc(Oc2ccccc2)c1",
    "discrete label": "inactive"
  },
  {
    "compound": "Cc1cc(C)cc(NC(=O)Cn2cc3c(n2)CCCCC3)c1",
    "discrete label": "active"
  },
  {
    "compound": "C=CCn1c(=S)[nH]c2sc3c(c2c1=O)CCC3",
    "discrete label": "active"
  },
  {
    "compound": "C=C(C)C1CC=C(C)/C(=N/NC(=S)Nc2ccccc2)C1 (stereo unspecified)",
    "discrete label": "inactive"
  }
]

---

target desc: G protein-activated inward rectifier potassium channel 2 (Homo sapiens) + G protein-activated inward rectifier potassium channel 1 (Homo sapiens) (UniProt P48051+P48549)
run description: GIRK1/2 thallium flux modulators, retest, confirmation, cell-based, HEK293 rmGlu8/hGIRK1/2, FluoZin-2 (AID 623911)
condition: HEK293 rmGlu8/hGIRK1/2, thallium flux FluoZin-2; actives lie on both sides; glutamate co-added at its EC20 level
About 770 (37%) of roughly 2,100 compounds were called active.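 How the source made its calls: active means by-eye trace score of 1 for enhancers or -1 for inhibitors, so actives lie on both sides (some results past the limit were not filed as active); inactive means score 0, or 3 fluorescent, or 4 baseline rise.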 The list shows a part of the results.
Outcomes: True = active, False = inactive

[
  {
    "compound": "Cc1nnc2n(C3CCCCC3)c(=O)c3c4c(sc3n12)COC(C)(C)C4",
    "discrete label": "False"
  },
  {
    "compound": "CCOC(=O)CC1=C(C(=O)OCC)C(c2cccs2)C(C#N)=C(N)O1 (configuration not stated)",
    "discrete label": "False"
  },
  {
    "compound": "COc1cccc(CNCCNC(=O)c2ccco2)c1OC",
    "discrete label": "False"
  },
  {
    "compound": "CC(C)=CCC(C)(C)CNC(=O)NC1CCCCC1",
    "discrete label": "True"
  },
  {
    "compound": "CCCCCCCCCn1c2c(c(=N)c3c1CCC3)CCC2",
    "discrete label": "True"
  },
  {
    "compound": "O=C(O)CCC(=O)NC1CCCCCCC1",
    "discrete label": "False"
  },
  {
    "compound": "CCCCn1c(-c2csc3c2CCCC3)n[nH]c1=S",
    "discrete label": "False"
  },
  {
    "compound": "COc1cc(C)ccc1OCCOc1cc(C)ccc1Cl",
    "discrete label": "False"
  },
  {
    "compound": "COC(=O)c1ccc(NC(=O)C23CC4CC(C2)CC(n2cncn2)(C4)C3)cc1",
    "discrete label": "False"
  },
  {
    "compound": "Cc1cc(NC(=O)c2ccccc2Oc2ccccc2)no1",
    "discrete label": "False"
  },
  {
    "compound": "COc1ccc(C)cc1NC(=O)C(=O)NNC(=O)c1ccco1",
    "discrete label": "True"
  },
  {
    "compound": "CC1(C)Cc2c(sc3[nH]c(=S)n(Cc4ccco4)c(=O)c23)CO1",
    "discrete label": "True"
  }
]

---

Recorded manual score for the following molecules
target desc: G protein-activated inward rectifier potassium channel 2 (Homo sapiens) + G protein-activated inward rectifier potassium channel 1 (Homo sapiens) (UniProt P48051+P48549)
run description: GIRK1/2 thallium flux modulators, retest, confirmation, cell-based, HEK293 rmGlu8/hGIRK1/2, FluoZin-2 (AID 623911)
condition: HEK293 rmGlu8/hGIRK1/2, thallium flux FluoZin-2; actives lie on both sides; glutamate co-added at its EC20 level
About 770 (37%) of roughly 2,100 compounds were called active. This is one part of the list.

[
  {
    "molecule": "Clc1ccccc1-c1nnc2sc(-c3ccccn3)nn12",
    "manual score": "0.5 (inactive)"
  },
  {
    "molecule": "CCCc1nc2ccccc2c(=O)n1/N=C/c1c(C)[nH]n(-c2ccc(C)cc2)c1=O",
    "manual score": "1 (active)"
  },
  {
    "molecule": "CC(=O)Oc1ccc2c(c1)Oc1cc(OC(C)=O)ccc1C21OC(=O)c2ccccc21",
    "manual score": "3 (inactive)"
  },
  {
    "molecule": "CC(C)CC(=O)Nc1cccc2c1C(=O)N(c1ccccc1)C2=O",
    "manual score": "-0.5 (inactive)"
  },
  {
    "molecule": "CCOC(=O)C1=C(c2ccccc2)NC(SC)=C(C#N)C1c1ccco1 (configuration not stated)",
    "manual score": "0 (inactive)"
  },
  {
    "molecule": "C=CCN(CC=C)C(=S)NC(=O)c1ccc(C)c(Br)c1",
    "manual score": "1 (active)"
  },
  {
    "molecule": "CCCCN(CCCC)C(=O)CSc1nnc2n(C)c(=O)c3c4c(sc3n12)CCCC4",
    "manual score": "-0.5 (inactive)"
  },
  {
    "molecule": "COc1cccc(NC(=O)Nc2cccs2)c1",
    "manual score": "1 (active)"
  },
  {
    "molecule": "Brc1ccccc1-c1nnc2sc(-c3ccc4c(c3)OCCO4)nn12",
    "manual score": "-1 (active)"
  },
  {
    "molecule": "O=C(NC(=S)Nc1nc2c(ccc3ccccc32)s1)c1cccs1",
    "manual score": "0.5 (inactive)"
  },
  {
    "molecule": "COc1ccc(C(=O)NC(=S)NCCO)cc1Br",
    "manual score": "1 (active)"
  },
  {
    "molecule": "CC(C)CC(=O)NC(=S)N(Cc1ccccc1)Cc1ccccc1",
    "manual score": "1 (active)"
  },
  {
    "molecule": "COc1ccc(OC)c(C2C(C(=O)c3cc4ccccc4o3)=C(O)C(=O)N2c2cc(C)on2)c1 (configuration not stated)",
    "manual score": "0 (inactive)"
  },
  {
    "molecule": "COc1cc(OC)cc(C(=O)NC(=S)N2CCN(c3ccc(C(F)(F)F)cc3[N+](=O)[O-])CC2)c1",
    "manual score": "1 (active)"
  },
  {
    "molecule": "O=c1[nH]c2ccccc2n1CCC1CCCCC1",
    "manual score": "0 (inactive)"
  },
  {
    "molecule": "O=C(Cc1cccs1)Nc1cccnc1",
    "manual score": "0 (inactive)"
  },
  {
    "molecule": "Cc1ccnc(NC(=S)NC(=O)/C=C/c2ccco2)c1",
    "manual score": "0 (inactive)"
  },
  {
    "molecule": "C=CCN(CC=C)C(=S)NC(=O)c1ccc(OC)c(Br)c1",
    "manual score": "1 (active)"
  },
  {
    "molecule": "CCc1ccc(NC(=S)NNC(=O)c2ccccc2OC(F)F)cc1",
    "manual score": "1 (active)"
  },
  {
    "molecule": "CC1CC(C)CN(Cc2nc(N)nc(Nc3ccc4ccccc4c3)n2)C1 (configuration not stated)",
    "manual score": "0 (inactive)"
  },
  {
    "molecule": "O=C1C(Cl)=C(N2CCOCC2)C(=O)N1c1cccc(Cl)c1",
    "manual score": "0 (inactive)"
  },
  {
    "molecule": "C=CCCCCCCCCc1nc(=S)[nH][nH]1",
    "manual score": "1 (active)"
  },
  {
    "molecule": "COc1cccc(C(=O)NC(=S)N2CCN(c3ccc(C(F)(F)F)cc3[N+](=O)[O-])CC2)c1",
    "manual score": "0.5 (inactive)"
  },
  {
    "molecule": "c1ccc(-c2nnc3ccc(N4CCCC4)nn23)cc1",
    "manual score": "0 (inactive)"
  },
  {
    "molecule": "COc1cc(NC(=O)Cc2cccs2)cc(OC)c1",
    "manual score": "1 (active)"
  },
  {
    "molecule": "CSCSC1=C(C#N)C(c2ccc(Cl)cc2)C(C(C)=O)=C(C)N1 (configuration not stated)",
    "manual score": "0 (inactive)"
  },
  {
    "molecule": "CC/C(=N\\NC(=S)Nc1ccc(OC)cc1)c1ccc(OC(F)F)cc1",
    "manual score": "0 (inactive)"
  },
  {
    "molecule": "CCn1c(SCC(N)=O)nc2sc3c(c2c1=O)CCCC3",
    "manual score": "1 (active)"
  },
  {
    "molecule": "CCc1ccc(/C=C/C(=O)c2cc(Br)ccc(=O)c2O)cc1",
    "manual score": "1 (active)"
  },
  {
    "molecule": "O=C(NC(=S)NCCc1ccccc1)c1ccco1",
    "manual score": "1 (active)"
  },
  {
    "molecule": "CCOc1ccccc1C1CC(=O)NC(SCC)=C1C#N (configuration not stated)",
    "manual score": "0 (inactive)"
  },
  {
    "molecule": "CC(/C=N/n1c(C2CCCCC2)n[nH]c1=S)=C\\c1ccccc1",
    "manual score": "0 (inactive)"
  },
  {
    "molecule": "CCOc1ccc(Nc2ncnc(N)n2)cc1",
    "manual score": "1.5 (inactive)"
  },
  {
    "molecule": "CCCC(=O)Nc1ccc(NC(=O)C23CC4CC(CC(C4)C2)C3)cn1",
    "manual score": "0 (inactive)"
  },
  {
    "molecule": "N#Cc1c(-c2ccco2)nc(SCc2ccc(F)cc2)[nH]c1=O",
    "manual score": "0 (inactive)"
  },
  {
    "molecule": "Cc1ccc(-n2[nH]c(C)c(/C=N/c3ccccn3)c2=O)cc1",
    "manual score": "0 (inactive)"
  },
  {
    "molecule": "c1ccc2c(N3CCCCCC3)nc(-c3ccncc3)nc2c1",
    "manual score": "-1 (active)"
  },
  {
    "molecule": "CCCOC(=O)NC(CC)COC(=O)Nc1cccc(C)c1C (configuration not stated)",
    "manual score": "0 (inactive)"
  },
  {
    "molecule": "Cc1ccc(C)c(N=C2CCCN2Cc2ccccc2)c1C#N",
    "manual score": "-1 (active)"
  },
  {
    "molecule": "O=c1c2c3c(sc2nc2n1CCCCC2)CCCCC3",
    "manual score": "0 (inactive)"
  },
  {
    "molecule": "Cc1cccc(C)c1NC(=S)NC(=O)CCc1ccccc1",
    "manual score": "0 (inactive)"
  },
  {
    "molecule": "O=C(Nc1ccc(SC(F)F)cc1)C12CCC(CC1)C2",
    "manual score": "1 (active)"
  },
  {
    "molecule": "CC(C)C(=O)NC(=S)N(Cc1ccccc1)Cc1ccccc1",
    "manual score": "1 (active)"
  },
  {
    "molecule": "O=C(CNC(=S)NC(=O)c1ccco1)c1ccccc1",
    "manual score": "1 (active)"
  },
  {
    "molecule": "CCSc1nc(-c2ccccc2)c(C#N)c(=O)[nH]1",
    "manual score": "0 (inactive)"
  },
  {
    "molecule": "CCOc1ccc(NC(=O)CCC(=O)c2ccc(-c3ccccc3)cc2)cc1",
    "manual score": "0 (inactive)"
  },
  {
    "molecule": "CC1(C)Cc2c(ccc3ccccc23)-c2nnc(-c3cccnc3)n21",
    "manual score": "0 (inactive)"
  }
]
